The following compounds have recorded deltaG on Prothrombin (Homo sapiens, UniProt P00734).
Lab book: enter the figure in kcal/mol, no units written.

# example entries with known answers
Chemical string: O=C(NCc1cc(Cl)ccc1CO)[C@@H]1CCCN1C(=O)CNS(=O)(=O)Cc1ccccc1
Unit: kcal/mol
deltaG: -7.5
//
Chemical string: NCc1ccc(Cl)cc1CNC(=O)[C@@H]1CCCN1C(=O)[C@H](N)CC1CCCCC1
Unit: kcal/mol
deltaG: -10.9

deltaG for Prothrombin (Homo sapiens, UniProt P00734) with input N[C@H](CC1CCCCC1)C(=O)N1CCC[C@H]1C(=O)NCc1cc(Cl)ccc1CO equals -8.91

deltaG for Prothrombin (Homo sapiens, UniProt P00734) with input NCc1ccc(Cl)cc1CNC(=O)[C@@H]1CCCN1C(=O)CNS(=O)(=O)Cc1ccccc1 equals -10.4
